# Test system: Aspergillus flavus
# assay.comment: Antifungal activity against Aspergillus flavus MTCC 1021 assessed as zone of inhibition at 40 uM after 48 hrs by disc diffusion method
# Format: functional
# conditions.used: MTCC 1021, 48 h, read-out: IZ
zone of inhibition at 40 µM reference
Field format: number, assumed mm, no unit text.

line.notation	units.symbol	zone of inhibition at 40 µM
COc1ccc(NS(=O)(=O)c2ccc(/N=C(\C=C\c3ccc(O)c(OC)c3)CC(/C=C/c3ccc(O)c(OC)c3)=N/c3ccc(S(=O)(=O)Nc4ccc(OC)nn4)cc3)cc2)nn1	mm	11
COc1cc(/C=C/C(O)=C/C(/C=C/c2ccc(O)c(OC)c2)=N/c2ccc(S(=O)(=O)Nc3nc(C)cc(C)n3)cc2)ccc1O	mm	9
COc1ccc(NS(=O)(=O)c2ccc(/N=N/C(C(=O)/C=C/c3ccc(O)c(OC)c3)=C(O)\C=C\c3ccc(O)c(OC)c3)cc2)nn1	mm	12
COc1cc(/C=C/C(O)=C/C(/C=C/c2ccc(O)c(OC)c2)=N/c2ccc(S(=O)(=O)Nc3ccccn3)cc2)ccc1O	mm	9

Could you now consider this next compound?
Form field: reported zone of inhibition at 40 µM of COc1cc(/C=C/C(CC(/C=C/c2ccc(O)c(OC)c2)=N/c2ccc(S(=O)(=O)Nc3ccccn3)cc2)=N\c2ccc(S(=O)(=O)Nc3ccccn3)cc2)ccc1O
9

----------
# Test system: HCT-116
# assay.comment: Cytotoxicity against human HCT116 cells after 24 hrs by MTT assay
# Format: functional, cell-based
endpoint.label: IC50 (µM)
Field format: number, assumed µM, no unit text.

Take a look at these entries with their results.
line.notation	IC50, µM
COc1cc(/C=C/C(O)=C/C(/C=C/c2ccc(O)c(OC)c2)=N/c2ccc(S(N)(=O)=O)cc2)ccc1O	50
COc1ccc(NS(=O)(=O)c2ccc(/N=C(\C=C\c3ccc(O)c(OC)c3)CC(/C=C/c3ccc(O)c(OC)c3)=N/c3ccc(S(=O)(=O)Nc4ccc(OC)nn4)cc3)cc2)nn1	25
COc1cc(/C=C/C(CC(/C=C/c2ccc(O)c(OC)c2)=N/c2ccc(S(=O)(=O)Nc3cc(C)on3)cc2)=N\c2ccc(S(=O)(=O)Nc3cc(C)on3)cc2)ccc1O	100
COc1cc(/C=C/C(O)=C/C(/C=C/c2ccc(O)c(OC)c2)=N/c2ccc(S(=O)(=O)Nc3nc(C)cc(C)n3)cc2)ccc1O	25
COc1cc(/C=C/C(CC(/C=C/c2ccc(O)c(OC)c2)=N/c2ccc(S(N)(=O)=O)cc2)=N\c2ccc(S(N)(=O)=O)cc2)ccc1O	100

Form field: reported IC50 of COc1cc(/C=C/C(O)=C/C(/C=C/c2ccc(O)c(OC)c2)=N/c2ccc(S(=O)(=O)Nc3cc(C)on3)cc2)ccc1O
25

Form field: reported IC50 of COc1ccc(NS(=O)(=O)c2ccc(/N=C(/C=C(O)/C=C/c3ccc(O)c(OC)c3)\C=C\c3ccc(O)c(OC)c3)cc2)nn1
25

----------
# Test system: Trichoderma viride
# assay.comment: Antifungal activity against Trichoderma viride MTCC 1107 assessed as zone of inhibition at 20 uM after 48 hrs by disc diffusion method
# Type: functional
# conditions.used: MTCC 1107, 48 h, read-out: IZ
endpoint.label: zone of inhibition at 20 µM (mm)
Field format: number, assumed mm, no unit text.

Take a look at these entries with their results.
line.notation	zone of inhibition at 20 µM / mm
COc1cc(/C=C/C(O)=C/C(/C=C/c2ccc(O)c(OC)c2)=N/c2ccc(S(=O)(=O)Nc3cc(C)on3)cc2)ccc1O	9
COc1ccc(NS(=O)(=O)c2ccc(/N=C(\C=C\c3ccc(O)c(OC)c3)CC(/C=C/c3ccc(O)c(OC)c3)=N/c3ccc(S(=O)(=O)Nc4ccc(OC)nn4)cc3)cc2)nn1	12
COc1cc(/C=C/C(=O)C(/N=N/c2ccc(S(=O)(=O)Nc3nc(C)cc(C)n3)cc2)=C(O)/C=C/c2ccc(O)c(OC)c2)ccc1O	18

Could you now consider this next compound?
Form field: reported zone of inhibition at 20 µM of COc1cc(/C=C/C(CC(/C=C/c2ccc(O)c(OC)c2)=N/c2ccc(S(=O)(=O)Nc3ccccn3)cc2)=N\c2ccc(S(=O)(=O)Nc3ccccn3)cc2)ccc1O
10
